test: self-splicing fitness, log relative to wild type (ln ratio); higher = more splicing; Tetrahymena group I intron in knt gene, E. coli kanamycin selection, DiMSum; sequences stand for … in CUCUCU…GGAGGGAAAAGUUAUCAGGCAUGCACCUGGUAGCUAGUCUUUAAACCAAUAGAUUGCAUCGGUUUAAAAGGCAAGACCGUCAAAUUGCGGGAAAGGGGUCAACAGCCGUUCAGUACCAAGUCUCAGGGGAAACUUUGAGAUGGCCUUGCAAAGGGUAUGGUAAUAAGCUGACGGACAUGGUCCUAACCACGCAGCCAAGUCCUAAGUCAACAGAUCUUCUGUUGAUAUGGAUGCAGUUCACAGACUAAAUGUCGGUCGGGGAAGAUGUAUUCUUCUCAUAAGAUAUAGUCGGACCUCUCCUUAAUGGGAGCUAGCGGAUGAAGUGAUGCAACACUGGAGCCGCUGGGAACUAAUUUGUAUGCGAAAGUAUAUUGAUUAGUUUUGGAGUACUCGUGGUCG; details: 30 °C;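 also: selection with 25 µg/mL kanamycin versus none on LB agar overnight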
Parameter threshold = -3. Response is yes when self-splicing fitness (ln) meets or exceeds it, else no.

RESIDUE_CODES: GCUGAGCAAUAUUACGUACU
CLASS_NAME: yes
//
RESIDUE_CODES: UCGCAGCAAUAUUACGGCGU
CLASS_NAME: yes
//
RESIDUE_CODES: CACGAGCAAUAUUACGCUCG
CLASS_NAME: no
//
RESIDUE_CODES: UAACAGCAAUAUUACGGUCG
CLASS_NAME: yes
//
RESIDUE_CODES: UCCCAGCAAUAUUACGCCUU
CLASS_NAME: no
//
RESIDUE_CODES: AUAAAGCAAUAUUACGGAUC
CLASS_NAME: yes
//
RESIDUE_CODES: CAACAGCAAUAUUACGGGGG
CLASS_NAME: yes
//
RESIDUE_CODES: UGCAAGCAAUAUUACGUAAU
CLASS_NAME: yes
//
RESIDUE_CODES: CUCCAGCAAUAUUACGUUAA
CLASS_NAME: no
//
RESIDUE_CODES: CGGGAGCAAUAUUACGGAGC
CLASS_NAME: yes
//
RESIDUE_CODES: GUAUAGCAAUAUUACGUAGU
CLASS_NAME: yes
//
RESIDUE_CODES: GAGCAGCAAUAUUACGAGGU
CLASS_NAME: no
//
RESIDUE_CODES: UGCGAGCAAUAUUACGAGAG
CLASS_NAME: yes
//
RESIDUE_CODES: AUCUAGCAAUAUUACGCGGG
CLASS_NAME: no
//
RESIDUE_CODES: CUACAGCAAUAUUACGCUAC
CLASS_NAME: no
//
RESIDUE_CODES: CGCCAGCAAUAUUACGGCGG
CLASS_NAME: yes
